Documented normalized RNA/DNA level without ligand (log10) across a set of variants
B1: library; a variant is named by its letters at N, in order (parent)
chain: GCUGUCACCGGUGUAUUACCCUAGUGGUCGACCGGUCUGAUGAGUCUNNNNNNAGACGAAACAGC

Variants of: B1
experiment description: normalized RNA/DNA level without ligand (relative to sTRSVctl = 100) (log10 (% of sTRSVctl)); ligand: hypoxanthine (xanthine aptamer); higher = less ribozyme self-cleavage, higher mRNA level
experimental parameters: HEK293T, reporter: mCherry (pCS4076), ligand present: no
quantity kind: normalized RNA/DNA level without ligand (log10)

record sequence	number
GCUGUCACCGGUGUAUUACCCUAGUGGUCGACCGGUCUGAUGAGUCUCGGUUAAGACGAAACAGC [CGGUUA]	1.52
GCUGUCACCGGUGUAUUACCCUAGUGGUCGACCGGUCUGAUGAGUCUCUAAGUAGACGAAACAGC [CUAAGU]	1.86
GCUGUCACCGGUGUAUUACCCUAGUGGUCGACCGGUCUGAUGAGUCUAUUCGGAGACGAAACAGC [AUUCGG]	1.46
GCUGUCACCGGUGUAUUACCCUAGUGGUCGACCGGUCUGAUGAGUCUGUCCGAAGACGAAACAGC [GUCCGA]	1.73
GCUGUCACCGGUGUAUUACCCUAGUGGUCGACCGGUCUGAUGAGUCUAGUGUCAGACGAAACAGC [AGUGUC]	1.88
